System: Hepatitis C virus NS3 helicase
Experiment: HCV NS3 helicase inhibitors, primary screen, biochemical, fluorescence polarization, LOPAC1280 library (AID 687035)
Settings: Purified HCV NS3 helicase, Cy5-dT15 ssDNA binding fluorescence polarization; stronger effect = higher value; concentration not given here
readout_type: inhibition (%)
Please reply with the bare figure in % and do not write the unit itself.

Example results:
C=CCN1CC[C@]23c4c5ccc(O)c4O[C@H]2/C(=N\NC(=O)c2ccccc2)CC[C@@]3(O)[C@H]1C5 | -6
CCCN(CCC)CCc1ccc(O)c(O)c1 | 0
Cc1c(C(=O)c2cccc3ccccc23)c2cccc3c2n1[C@H](CN1CCOCC1)CO3 | -8
CCCN1CC[C@@H]2c3cc(O)ccc3CC[C@@H]21 | -4
NCCCP(=O)(O)O | -1

Could you now look at the following compound, please?
Lab note: compound C[C@]12CCC3C(CC[C@H]4C[C@H](O)CC[C@]34C)C1CC[C@@H]2C(=O)CO (stereo partly specified) tested on Hepatitis C virus NS3 helicase; recorded inhibition was -2

====

Reported activity remaining by item:
Tested on: Aerobactin synthetase IucA (Klebsiella pneumoniae hvKP1)
Test: Biochemical IucA enzyme inhibition primary screen of the Spectrum library (AID 1346200);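 further: 100% = wells without compound and 0% = wells lacking enzyme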
Conditions: malachite green pyrophosphate, A620, at 8 µM, stronger effect = lower value
Please reply with the bare figure in % and do not write the unit itself.

Example results:
O=C(/C=C/c1ccccc1)O[C@H]1C[C@@H](O)[C@]2(O)C=CO[C@@H](O[C@@H]3O[C@H](CO)[C@@H](O)[C@H](O)[C@H]3O)[C@H]12 | 108
CCn1cc(C(=O)O)c(=O)c2cnc(N3CCNCC3)nc21 | 101

Could you now look at the following molecule, please?
Entry C[C@@H]1O[C@@H](O[C@H]2CC[C@]3(C=O)C4CC[C@]5(C)[C@@H](C6=CC(=O)OC6)CC[C@]5(O)C4CC[C@]3(O)C2)[C@H](O)[C@H](O)[C@H]1O (stereo partly drawn) — recorded activity remaining = 95.5

====

Reported z-score by item:
Experiment: survival rescue of mitochondrial mutant cells in low glucose, primary screen, MELAS cybrids, Rieske KO mouse fibroblasts, CellTiter-Glo (AID 1508586);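 further: z relative to plate mean and SD of compound and empty wells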
Details: MELAS cybrid survival, CellTiter-Glo 48 h, stronger effect = higher value
Respond using a number only.

Example results:
O=c1[nH]oc2c1CCNC2 | 0.562
O=C(NCNC(=O)NC1C(=O)NC(=O)N1CO)NC1C(=O)NC(=O)N1CO (centres undefined) | 0.818
CCCCCCCCCCCCCCCC[n+]1ccccc1 | -0.367

Entry C[C@H](N)[C@H](O)c1ccccc1 — recorded z-score = -0.606

====

System: Aerobactin synthetase IucA (Klebsiella pneumoniae hvKP1)
Test: Biochemical IucA enzyme inhibition primary screen of the Spectrum library (AID 1346200);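 further: 100% = wells without compound and 0% = wells lacking enzyme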
Conditions: malachite green pyrophosphate, A620, at 8 µM, stronger effect = lower value
readout_type: activity remaining (%)
Please reply with the bare figure in % and do not write the unit itself.

Example results:
NC(=O)c1cnccn1 | 102
CCn1nc(C(=O)O)c(=O)c2cc3c(cc21)OCO3 | 112
OC1=Cc2c(O)cc(O)cc2OC1(O)c1ccc(O)c(O)c1 (stereo unspecified) | 81.3

Entry CC[C@]1(O)CC2CN(CCc3c([nH]c4ccccc34)[C@@](C(=O)OC)(c3cc4c(cc3OC)N(C)[C@H]3[C@@](O)(C(=O)OC)[C@H](OC(C)=O)[C@]5(CC)C=CCN6CC[C@]43[C@@H]65)C2)C1 (stereo partly specified) — recorded activity remaining = 126

Entry COc1cc(C/C=C/c2ccccc2)c(OC)cc1O — recorded activity remaining = 113

Entry C[C@H](N)[C@H](O)c1ccc(O)c(O)c1 — recorded activity remaining = 102

Entry CC(=O)/C(=C\c1ccccc1)CC(=O)O — recorded activity remaining = 98.6

====

Assay: inhibition of 3D7 malaria parasite growth – strain 3D7 (AID 2306);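 further: 0% = DMSO wells and 100% = chloroquine plus artemisinin control wells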
Conditions: P. falciparum 3D7 erythrocytic growth, LDH absorbance, 72 h; at 2 µM; stronger effect = higher value
readout_type: growth inhibition (%)
Please reply with the bare figure in % and do not write the unit itself.

Example results:
CC(C)CNCc1ccc(-c2cccc(CN(C(=O)NC3CCCCC3)C3CCN(Cc4ccccc4)CC3)c2)cc1 | 98
O=C(NC1CCC(CN2CCC(c3c[nH]c4ccccc34)CC2)CC1)c1ccc(-c2cc(C(F)(F)F)ccc2Cl)o1 (centres undefined) | 102
CCOC(=O)c1c(C)n(C2CCCCC2)c2cc(Br)c(O)cc12 | 98
COCCNCc1cccc(-c2cccc(CN(C(=O)Nc3ccccc3)C3CCN(Cc4ccccc4)CC3)c2)c1 | 100
CC[C@H]1CN2CC[C@@H]1C[C@H]2[C@H](O)c1cc(-c2ccccc2)nc2ccc(O)cc12 | 99
COc1ccc(C[C@@H](C)NC[C@H](O)c2cccc(Cl)c2)cc1F | 88

Entry CC(Cc1ccc(CSC(C)C)cc1)NCC(O)c1cccc(Cl)c1 (centres undefined) — recorded growth inhibition = 98

Entry Oc1ccc(Cl)cc1CN1CCC(CCOC(c2ccccc2)c2ccccc2)CC1 — recorded growth inhibition = 98

Entry O=C(/C=C/c1ccc2ccccc2c1)NC1CCC(CN2CCC(c3c[nH]c4ccccc34)CC2)CC1 (centres undefined) — recorded growth inhibition = 100

Entry CCCN(CC(=O)NCCc1ccccc1)c1ccc(C#N)c2ccccc12 — recorded growth inhibition = 92

Entry Cc1ccc(CC(C)NCC(O)c2cccc(Cl)c2)cc1 (centres undefined) — recorded growth inhibition = 93

Entry C1=C(c2c[nH]c3ccccc23)CCN(Cc2ccccc2)C1 — recorded growth inhibition = 91

Entry CCCCC1(NC(=O)[C@H](CC(C)C)Nc2ccc(C#N)c3ccccc23)CCCCC1 — recorded growth inhibition = 96

Entry CC(=O)C1(c2ccccc2)CCN(CCC(NC(=O)c2cc(C(F)(F)F)cc(C(F)(F)F)c2)c2ccc(Cl)c(Cl)c2)CC1 (centres undefined) — recorded growth inhibition = 91

Entry CC(C)CNCc1cccc(-c2cccc(CN(C(=O)Nc3ccccc3)C3CCN(Cc4ccccc4)CC3)c2)c1 — recorded growth inhibition = 102

Entry CN(c1cc(NC(=O)c2ccc(F)cc2)ccn1)C1CCN(Cc2cccc(F)c2)CC1 — recorded growth inhibition = 100

====

Reported inhibition by item:
Experiment: HDN33 neuroblastoma growth inhibition, cell-based, chromothripsis tumors, cisplatin or BGB combos (AID 1671450);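 further: cells exposed to compound for four days; 0% = vehicle DMSO and 100% = cell killing by high DMSO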
Conditions: HDN33 neuroblastoma cells, cisplatin combo, at 5 µM, stronger effect = higher value
Please reply with the bare figure in % and do not write the unit itself.

Example results:
O=c1[nH]c(=O)n(C2OC(CO)C(O)C2O)cc1F (stereo not drawn) | 97.9
O=P(O)(NCCCl)NCCCl | -23.7

Could you now look at the following compound, please?
Entry CC1(C)C(C(=O)Nc2ccc(S(=O)(=O)c3ccc(NC(=O)C4C(C)(C)C4(C)C)cc3)cc2)C1(C)C — recorded inhibition = -66.6

====

Reported inhibition by item:
Assay: HepG2 cytotoxicity, primary screen, cytotoxicity control for P. falciparum antimalarial project, cell-based, ATP luminescence (AID 2303);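 further: 0% = DMSO wells and 100% = digitonin-killed cells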
Conditions: HepG2 viability, 24-48 h, at 10 µM, stronger effect = higher value
Active and inactive are the calls of the source.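 How the source made its calls: active means inhibition above 50%; inactive means the rest.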

Entry COC(=O)c1ccc(CC(C)NCC(O)c2cccc(I)c2)cc1 (stereo unspecified) — recorded inhibition = 15% (inactive)

====

Test system: Aerobactin synthetase IucA (Klebsiella pneumoniae hvKP1)
Test: Biochemical IucA enzyme inhibition primary screen of the Spectrum library (AID 1346200);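 further: 100% = wells without compound and 0% = wells lacking enzyme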
Conditions: malachite green pyrophosphate, A620, at 8 µM, stronger effect = lower value
readout_type: activity remaining (%)
Please reply with the bare figure in % and do not write the unit itself.

Example results:
CC(C)=CCCC1(C)C=Cc2c(O)c3c(c(CC=C(C)C)c2O1)OC12C(=CC4CC1C(C)(C)OC2(C/C=C(\C)C(N)=O)C4=O)C3=O (stereo not drawn) | 99.6
NC[C@@H]1O[C@H](O[C@@H]2[C@@H](CO)OC(O[C@@H]3[C@@H](O)[C@H](N)C[C@H](N)[C@H]3OC3O[C@H](CN)[C@@H](O)[C@H](O)[C@H]3N)[C@@H]2O)[C@H](N)[C@@H](O)[C@@H]1O (stereo partly drawn) | 99.1

Could you now look at the following molecule, please?
Lab note: molecule COC(=O)[C@@H]1OC(=O)[C@H]2O[C@@]23[C@@]1(C)CCC1[C@@]2(C)CCC(=O)C(C)(C)C2C[C@@H](OC(C)=O)[C@]13C (stereo partly drawn) tested on Aerobactin synthetase IucA (Klebsiella pneumoniae hvKP1); recorded activity remaining was 109

====

Experiment: differential killing of epithelial or mesenchymal cells, primary screen, imaging, PC-3E GFP, TEM4-18 mCherry, co-culture (AID 1345086);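 further: normalised mesenchymal count divided by normalised epithelial count so high means epithelial killing; cells exposed to compound for 72 h before imaging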
Conditions: imaging cell counts, at 1 µM, actives lie on both sides
Activity calls are given as the source filed them.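 The calls were made as follows: active = compounds killing one labelled cell type while sparing the other, by normalised counts and ratio limits, not self-fluorescent; inactive = the rest.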
Classes to choose from: active, inactive

Please review the entries below; each comes with its answer.
C#CCN(C)C(C)Cc1ccccc1 (stereo not drawn) | inactive
Cc1[nH]c2ccccc2c1CN(C)C | inactive
COc1cc2c(cc1OC)[C@@H]1C(=O)c3ccc(OC)c(CC=C(C)C)c3O[C@@H]1CO2 | inactive
CC1(C)C(=O)C=C[C@@]2(C)C1=C(O)C(=O)[C@]1(C)C2CC[C@@]2(C)[C@H](c3ccoc3)C[C@H]3O[C@]321 (stereo partly drawn) | inactive
NCC(=O)c1ccccc1 | inactive
C[C@]12CC[C@H](O)C[C@H]1CCC1C2CC[C@]2(C)[C@@H](C3=CC(=O)OC3)[C@@H](O)C[C@]12O (stereo partly drawn) | active

Request: Outcome? CNC(C)(C)Cc1ccccc1
Result: inactive

Request: Outcome? COc1cccc([C@]2(O)CCCC[C@H]2CN(C)C)c1
Result: inactive

Request: Outcome? CC(=O)OCC1=C(C(=O)O)N2C(=O)[C@@H](NC(=O)CCCC(N)C(=O)O)C2SC1 (stereo partly drawn)
Result: inactive

Request: Outcome? CCOP(=S)(OCC)Oc1cc(C)nc(C(C)C)n1
Result: inactive

Request: Outcome? CCC1(CC)C(=O)C=CNC1=O
Result: inactive

Request: Outcome? CC(C)c1c(CN(C)C(C)Cc2ccccc2)n(C)n(-c2ccccc2)c1=O (stereo not drawn)
Result: inactive

Request: Outcome? O=c1c2ccccc2[se]n1-c1ccccc1
Result: inactive
